- experimental system: Recombinant human inducible NOS (iNOS) (Homo sapiens (Human), UniProt P35228)
- assay explanation: Human iNOS enzyme assay (Protocol 1 or Protocol 2, radiometric)
Counter-ions that a name gives are not always drawn.
experimental endpoint: pIC50
API: returns pIC50 as number; meaning -log10 of concentration in mol/L.

What value of measured pIC50 is listed for N=C(Nc1ccc2c(c1)N(CCNCCO)CCS2)c1cccs1 ? 4.22

What value of measured pIC50 is listed for CN(C)CCCN1CCSc2cc(NC(=N)c3cccs3)ccc21 ? 3.94

What value of measured pIC50 is listed for CCN(CC)CCN1CCSc2cc(NC(=N)c3cccs3)ccc21 ? 4.39

What value of measured pIC50 is listed for CN(C)CCN1CCOc2cc(NC(=N)c3cccs3)ccc21 ? 4.96

What value of measured pIC50 is listed for CN(CCN1CCSc2cc(NC(=N)c3cccs3)ccc21)CC(=O)O [Compound 17, dihydrochloride] ? 3.62

What value of measured pIC50 is listed for N=C(Nc1ccc2c(c1)OCCN2CCN1CCCC1)c1cccs1 ? 5.57

What value of measured pIC50 is listed for CCNCCN1CCSc2ccc(NC(=N)c3cccs3)cc21 ? 4.08

What value of measured pIC50 is listed for CNCCN1CCSc2ccc(NC(=N)c3cccs3)cc21 ? 3.46

What value of measured pIC50 is listed for N=C(Nc1ccc2c(c1)SCCN2CCN1CCCC1)c1cccs1 ? 3.93

What value of measured pIC50 is listed for CNCCN1CCSc2cc(NC(=N)c3cccs3)ccc21 ? 4.15

What value of measured pIC50 is listed for CNCCCN1CCSc2cc(NC(=N)c3cccs3)ccc21 ? 3.76

What value of measured pIC50 is listed for N=C(Nc1ccc2c(c1)OCC(=O)N2CCN1CCCC1)c1cccs1 ? 5.82

What value of measured pIC50 is listed for CN(C)CCN1CCOc2ccc(NC(=N)c3cccs3)cc21 ? 5.14

What value of measured pIC50 is listed for CN(C)CCN1CCSc2ccc(NC(=N)c3cccs3)cc21 ? 4.18

What value of measured pIC50 is listed for CNCCN1CCSc2cc(NC(=N)c3ccco3)ccc21 ? 3.57

What value of measured pIC50 is listed for N=C(Nc1ccc2c(c1)SCCN2CCNCCO)c1cccs1 [Compound 16, dihydrochloride] ? 4.23

What value of measured pIC50 is listed for N=C(Nc1ccc2c(c1)SCCN2CCN1CCC[C@H]1C(=O)O)c1cccs1 [Compound 18, dihydrochloride] ? 3.47

What value of measured pIC50 is listed for N=C(Nc1ccc2c(c1)SCCN2CCN1CCCCC1)c1cccs1 ? 3.76
